assay: MRT in Sprague dawley rat at 3 mg/kg, po; assay type: ADME, organism-based; conditions: in vivo
OUTCOME_MEASURE: MRT (h)
Reply numerically in h, unit not repeated.

Task: Give me measured MRT, please, for this molecule: `CN1CCN(c2ccc(C(=O)Nc3n[nH]c4c3CN(Cc3cc(F)cc(F)c3)C4(C)C)cc2)CC1`
Output: 3.49

====

test: AUC (0 to infinity) in Sprague dawley rat at 1 mg/kg, iv; assay type: ADME, organism-based; set-up: time infinity, route intravenous, dose 1 mg/kg; conditions: in vivo
OUTCOME_MEASURE: AUC(0-inf)
Units required after the number.

Task: Give me measured AUC(0-inf), please, for this molecule: `CN1CCN(c2ccc(C(=O)Nc3n[nH]c4c3CN(Cc3cc(F)cc(F)c3)C4(C)C)cc2)CC1`
Output: 2080 ng·h/mL
